- Test Name: NCI Yeast Anticancer Drug Screen. Data for the rad50EPP+ strain (AID 151)
- Setup Conditions: S. cerevisiae rad50 mutant strain, at 100.0 µM, hits give high values
This is part of a sample that, as a whole, favours compounds with a hit. Of some 79,000 tested, about 15% had one in any assay.
Kindly return Met if reported growth inhibition is no lower than 40%; return Not met if it is lower.

>>> label_class("Brc1ccc(B2Nc3ccccc3N2)cc1")
"Met"
>>> label_class("CCOC(=O)/C(=C\\c1cccc(C)c1)C(C)=O")
"Met"
>>> label_class("COc1ccc2cc3c4cc5c(cc4cc[n+]3cc2c1OC)OCO5")
"Met"
>>> label_class("O=C(C(Cl)=C(N1CCCCC1)N1CCCCC1)C(Cl)Cl")
"Not met"
>>> label_class("CCC(/C=C/c1ccccc1)=N\\Nc1ccc(Cl)cc1")
"Not met"
>>> label_class("Cc1cc(OCc2nc(N)nc(N)c2-c2ccc(Cl)c(Cl)c2)ccc1[N+](=O)[O-]")
"Not met"
>>> label_class("NC(=S)N/N=C1\\c2ccccc2CCC1CCC1(O)CCc2ccccc2C1=O (centres undefined)")
"Not met"
>>> label_class("Clc1ccc(/C(=C\\c2ccccc2)Cn2ccnc2)cc1")
"Met"
>>> label_class("COc1cc(NCCCCNCC(C)(C)C)c2ncccc2c1")
"Not met"
>>> label_class("O=C(Nn1c(-c2ccccc2)nc2ccccc2c1=O)c1ccc(CS)cc1")
"Met"
>>> label_class("COc1cc2c(cc1O)[C@H](C)C(c1ccccc1OC)O2 (some centres undefined)")
"Not met"
>>> label_class("O=C1CCC(Cc2ccccc2)CN1 (centres undefined)")
"Met"
>>> label_class("CCCNC(=O)OCc1c(COC(=O)NCCC)c(-c2ccc(Cl)c(Cl)c2)n2c1CCC2")
"Not met"
>>> label_class("Nc1cc(Cl)ccc1Nc1ccccc1")
"Met"
>>> label_class("c1cc(-c2sc(-c3ccncc3)c(-c3ccncc3)c2-c2ccncc2)ccn1")
"Met"
>>> label_class("CC(C)OC(=O)NNc1cccc(Cl)c1")
"Met"
>>> label_class("CCCCCCCSCC1C(=O)C23C(O)C1CCC2C12COC3(O)C(O)C1C(C)(C)CCC2O (centres undefined)")
"Not met"
>>> label_class("CC(=O)NC(c1nc2cc(C)c(C)cc2[nH]1)c1nc2cc(C)c(C)cc2[nH]1")
"Met"
>>> label_class("COC(=O)C(=O)c1c(-c2ccc(Cl)c(Cl)c2)[nH]c2[nH]n(-c3ccccc3)c(=O)c2c1=O")
"Met"
>>> label_class("CN(C)N=Nc1ccc(N(C)C)cc1")
"Met"
>>> label_class("Nc1ccc(S(=O)(=O)Nc2nc3c(c(=O)[nH]2)CCCC3)cc1")
"Met"
>>> label_class("c1c[nH]c(CN2CCN(Cc3ncc[nH]3)CC2)n1")
"Met"
>>> label_class("CSc1nc(-c2ccccc2)nc(=[N+]2CCOCC2)s1")
"Met"
>>> label_class("CC1=NN(C(=O)CC(=O)NC(=O)/C=C\\c2ccccc2)C(=O)C1N=Nc1ccc([N+](=O)[O-])cc1 (centres undefined)")
"Met"

====

- Test Name: NCI Yeast Anticancer Drug Screen. Data for the sgs1 strain (AID 173)
- Setup Conditions: S. cerevisiae sgs1 mutant, at 11.0 µM
- Protocol: Growth inhibition of yeast strains with defined genetic alterations is measured as a screen for potential anti-cancer activity. Selected strains with alterations in DNA damage repair or cell cycle control were exposed to compounds and growth inhibition was measured relative to vehicle treated controls. The strain used in this assay is sgs1
This is part of a sample that, as a whole, favours compounds with a hit. Of some 79,000 tested, about 15% had one in any assay. The source made the active and inactive calls. Rule as the data show it: active = growth inhibition above about 70%; inactive = the rest.
Possible outcomes: active, inactive

>>> label_class("CCOC(=O)CC1(C)/C(=N\\Nc2ccc([N+](=O)[O-])cc2[N+](=O)[O-])CCC2C1CCC1(C)C(C(C)CCCC(C)C)CCC21 (stereo not given)")
"inactive"
>>> label_class("CCC(=O)C1=C(O)c2cc(OC)ccc2CC1C(=O)OC (stereo not given)")
"inactive"
>>> label_class("COC(=O)c1cnc(Cl)c([N+](=O)[O-])c1")
"active"
>>> label_class("c1ccc2c(c1)ccn2CCc1c[nH]c2ccccc12")
"inactive"
>>> label_class("O=C1/C(=C/c2ccc(Cl)c(Cl)c2)CNC/C1=C\\c1ccc(Cl)c(Cl)c1")
"inactive"
>>> label_class("CCCCCCCCCCCCCCCCCCNc1nc(=O)n(C2CC(OP(=O)(O)OCC3OC(n4cc(F)c(=O)[nH]c4=O)CC3O)C(CO)O2)cc1F (stereo not given)")
"inactive"
>>> label_class("CCCCCCCCN1COCC(COc2ccccc2C)OC1 (stereo not given)")
"inactive"
>>> label_class("O=[N+]([O-])c1ccc(/C=C\\c2ccc3c(c2)OCO3)c([N+](=O)[O-])c1")
"inactive"
>>> label_class("CC1=NN(C(=O)CC(=O)NC(=O)/C=C\\c2ccccc2)C(=O)C1N=Nc1ccc([N+](=O)[O-])cc1 (stereo not given)")
"inactive"
>>> label_class("CCOP(=O)(OCC)/C(C#N)=C\\c1cccc2ccccc12")
"inactive"

This collection of values is drawn from PubChem BioAssay (NCI).
